# Test Target: CDK4 (Homo sapiens)
# Construct: endogenous in cells; host or cells: Calu-1
# Sequence (P11802 2-303 limits assumed): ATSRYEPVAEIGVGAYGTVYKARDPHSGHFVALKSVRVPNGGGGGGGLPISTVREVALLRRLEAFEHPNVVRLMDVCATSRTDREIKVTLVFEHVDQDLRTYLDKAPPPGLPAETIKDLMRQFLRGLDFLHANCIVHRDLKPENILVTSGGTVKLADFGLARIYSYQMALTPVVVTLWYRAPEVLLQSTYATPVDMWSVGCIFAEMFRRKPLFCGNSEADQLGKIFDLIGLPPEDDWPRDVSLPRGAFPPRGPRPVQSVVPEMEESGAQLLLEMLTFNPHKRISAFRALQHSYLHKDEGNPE
# Sequence (P24385 whole entry partner): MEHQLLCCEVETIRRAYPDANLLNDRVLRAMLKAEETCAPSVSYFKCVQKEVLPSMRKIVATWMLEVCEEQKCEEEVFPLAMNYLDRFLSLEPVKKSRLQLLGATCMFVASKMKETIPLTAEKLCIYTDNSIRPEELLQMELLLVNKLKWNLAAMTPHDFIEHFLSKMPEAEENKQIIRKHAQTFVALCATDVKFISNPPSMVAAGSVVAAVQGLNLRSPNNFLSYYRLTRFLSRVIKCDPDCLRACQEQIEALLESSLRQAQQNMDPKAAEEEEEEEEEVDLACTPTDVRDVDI
# Sequence (Q16531 2-1140 limits assumed, further chain): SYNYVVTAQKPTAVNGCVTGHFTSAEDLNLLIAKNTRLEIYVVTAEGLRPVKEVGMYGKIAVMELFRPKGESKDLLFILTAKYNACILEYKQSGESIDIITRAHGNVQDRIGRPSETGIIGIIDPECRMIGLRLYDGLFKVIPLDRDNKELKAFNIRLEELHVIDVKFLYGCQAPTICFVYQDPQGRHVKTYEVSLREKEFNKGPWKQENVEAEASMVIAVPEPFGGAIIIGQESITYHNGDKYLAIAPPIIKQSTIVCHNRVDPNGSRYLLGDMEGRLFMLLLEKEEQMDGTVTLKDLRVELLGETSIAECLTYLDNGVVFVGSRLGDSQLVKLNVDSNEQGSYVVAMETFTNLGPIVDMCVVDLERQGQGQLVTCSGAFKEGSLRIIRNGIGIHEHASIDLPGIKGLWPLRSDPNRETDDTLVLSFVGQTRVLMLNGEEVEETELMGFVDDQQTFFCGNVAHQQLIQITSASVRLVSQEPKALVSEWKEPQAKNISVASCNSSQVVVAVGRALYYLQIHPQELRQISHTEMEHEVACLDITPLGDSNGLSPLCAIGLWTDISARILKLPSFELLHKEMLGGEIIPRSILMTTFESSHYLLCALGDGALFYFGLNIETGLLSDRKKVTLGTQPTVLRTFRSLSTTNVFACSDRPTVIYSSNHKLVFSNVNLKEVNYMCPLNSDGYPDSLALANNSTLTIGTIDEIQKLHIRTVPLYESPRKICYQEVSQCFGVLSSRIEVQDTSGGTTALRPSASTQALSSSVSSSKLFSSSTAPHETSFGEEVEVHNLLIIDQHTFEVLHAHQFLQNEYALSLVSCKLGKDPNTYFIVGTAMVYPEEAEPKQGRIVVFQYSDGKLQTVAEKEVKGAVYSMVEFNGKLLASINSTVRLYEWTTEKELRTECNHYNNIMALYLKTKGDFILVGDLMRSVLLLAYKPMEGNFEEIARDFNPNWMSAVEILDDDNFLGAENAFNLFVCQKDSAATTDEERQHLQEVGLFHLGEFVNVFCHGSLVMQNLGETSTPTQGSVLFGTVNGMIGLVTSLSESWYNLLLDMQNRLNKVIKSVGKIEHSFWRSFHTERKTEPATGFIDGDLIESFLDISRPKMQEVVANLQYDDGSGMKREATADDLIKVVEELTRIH
# Test Description: CDK4 percentage degradation in Calu-1 cells (immunoblotting)
# Format: cell-based
# Assay Setup: Calu-1 cells, 10 μM, 16 hours; read-out: CDK4 Degradation (10 μM)
Please respond with reported inhibition at 10 µM for every item in the list.

Looking up Cc1nc(NC(=O)c2ccccc2NC(=O)CCCCNC(=O)CN2CCN(c3ccc(Nc4ncc5cc6n(c5n4)C4(CCCCC4)CNC6=O)nc3)CC2)sc1C , I found its inhibition at 10 µM recorded as 50 to 80%

Looking up Cc1nc(NC(=O)c2ccccc2NC(=O)CCOCCNC(=O)CN2CCN(c3ccc(Nc4ncc5cc(C(=O)N(C)C)n(C6CCCC6)c5n4)nc3)CC2)sc1C , I found its inhibition at 10 µM recorded as 50 to 80%

Looking up Cc1nc(NC(=O)c2ccccc2NC(=O)CCCCCCCNC(=O)CN2CCN(c3ccc(Nc4ncc(F)c(-c5cc(F)c6nc(C)n(C(C)C)c6c5)n4)nc3)CC2)sc1C , I found its inhibition at 10 µM recorded as < 30%

Looking up Cc1nc(NC(=O)c2ccccc2NC(=O)CCOCCOCCOCCNC(=O)CN2CCN(c3ccc(Nc4ncc5cc6n(c5n4)C4(CCCCC4)CNC6=O)nc3)CC2)sc1C , I found its inhibition at 10 µM recorded as 50 to 80%

Looking up Cc1nc(NC(=O)c2ccccc2NC(=O)CCCCCCCCNC(=O)CN2CCN(c3ccc(Nc4ncc(F)c(-c5cc(F)c6nc(C)n(C(C)C)c6c5)n4)nc3)CC2)sc1C , I found its inhibition at 10 µM recorded as < 30%

Looking up Cc1nc(NC(=O)c2ccccc2NC(=O)CCCCCCCCNC(=O)CN2CCN(c3ccc(Nc4ncc5cc6n(c5n4)C4(CCCCC4)CNC6=O)nc3)CC2)sc1C , I found its inhibition at 10 µM recorded as 50 to 80%

Looking up Cc1nc(NC(=O)c2ccccc2NC(=O)CCOCCOCCOCCNC(=O)CN2CCN(Cc3ccc(Nc4ncc(F)c(-c5cc(F)c6nc(C)n(C(C)C)c6c5)n4)nc3)CC2)sc1C , I found its inhibition at 10 µM recorded as < 30%

Looking up Cc1cnc(NC(=O)c2ccc(NCCOCCOCCOCCOCCOCCNC(=O)CN3CCN(Cc4ccc(Nc5ncc(F)c(-c6cc(F)c7nc(C)n(C(C)C)c7c6)n5)nc4)CC3)cc2C)s1 , I found its inhibition at 10 µM recorded as < 30%

Looking up Cc1nc(NC(=O)c2ccccc2NC(=O)CCOCCOCCOCCOCCNC(=O)CN2CCN(c3ccc(Nc4ncc5cc6n(c5n4)C4(CCCCC4)CNC6=O)nc3)CC2)sc1C , I found its inhibition at 10 µM recorded as 50 to 80%

Looking up Cc1nc(NC(=O)c2ccccc2NC(=O)CCNC(=O)CN2CCN(c3ccc(Nc4ncc5cc6n(c5n4)C4(CCCCC4)CNC6=O)nc3)CC2)sc1C , I found its inhibition at 10 µM recorded as < 30%

Looking up Cc1nc(NC(=O)c2ccccc2NC(=O)CCOCCOCCOCCNC(=O)CN2CCN(c3ccc(Nc4ncc(F)c(-c5cc(F)c6nc(C)n(C(C)C)c6c5)n4)nc3)CC2)sc1C , I found its inhibition at 10 µM recorded as < 30%
